System under test: furin, P09958;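 also: purified furin at 1:10 enzyme:substrate in 50 mM HEPES pH 7.5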
Sequence (P09958 whole entry): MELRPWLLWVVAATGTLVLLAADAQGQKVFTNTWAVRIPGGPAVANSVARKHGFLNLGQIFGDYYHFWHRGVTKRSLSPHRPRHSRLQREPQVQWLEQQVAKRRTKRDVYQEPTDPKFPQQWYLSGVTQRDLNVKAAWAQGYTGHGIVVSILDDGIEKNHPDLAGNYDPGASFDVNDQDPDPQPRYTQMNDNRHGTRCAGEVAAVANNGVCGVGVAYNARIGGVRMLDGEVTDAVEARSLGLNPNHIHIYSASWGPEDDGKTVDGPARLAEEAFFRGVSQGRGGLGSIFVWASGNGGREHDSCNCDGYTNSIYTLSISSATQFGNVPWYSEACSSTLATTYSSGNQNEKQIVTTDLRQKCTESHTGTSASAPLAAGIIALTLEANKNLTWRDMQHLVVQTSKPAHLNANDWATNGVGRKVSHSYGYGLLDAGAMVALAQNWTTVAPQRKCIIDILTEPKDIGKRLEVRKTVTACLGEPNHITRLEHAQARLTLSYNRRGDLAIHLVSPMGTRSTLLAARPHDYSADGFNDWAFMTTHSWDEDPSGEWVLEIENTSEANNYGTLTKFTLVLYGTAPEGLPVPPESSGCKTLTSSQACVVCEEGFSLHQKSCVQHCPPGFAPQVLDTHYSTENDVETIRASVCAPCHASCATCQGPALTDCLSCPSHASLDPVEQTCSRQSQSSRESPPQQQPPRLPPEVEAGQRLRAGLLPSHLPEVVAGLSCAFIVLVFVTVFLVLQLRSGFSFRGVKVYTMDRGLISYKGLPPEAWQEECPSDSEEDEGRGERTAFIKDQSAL
Assay info: furin cleavage Z-score vs untreated control; higher = more cleavage, active = 3.5 or more, inactive = 1 or less, 8 variable residues between constant flanks
Condition info: 7.5 min
This is one part of the list. The true hit rate is not given.
Classes to choose from: true (1) = active, false (0) = inactive

Called result for CAVVCCSWSYAGNASASA [HC2048]
false (0)

Per the records of this test, what outcome belongs to CARARRSMDEAGNASASA [FS-2203] ?
true (1)

Any idea what this test logged for CACEECSQHLAGNASASA [HC1680] ?
false (0)

Hi, sorry to bother you, what did the test record for CARRLREAVQAGNASASA [FS-2071] ?
false (0)

What did the test return for CAEVVMSTWVAGNASASA [HC128] ?
false (0)

What outcome does the record of this test show for CATPVNSWLGAGNASASA [HC1572] ?
false (0)

Any idea what this test logged for CARARRLRREAGNASASA [FS-288] ?
true (1)

GET /call?item= CAHPVTKYIMAGNASASA [HC980] returns the recorded outcome of this test.
false (0)

Each sequence tested received a call. Report the one for CASMPCSAHLAGNASASA [HC2486] .
false (0)

Assay outcome for CARARKLADEAGNASASA [FS-2887] : what was it?
false (0)

Could you check what this test reported for CARARRRTPTAGNASASA [FS-1995] ?
false (0)
